Biological target: human Edg-2 receptor (Homo sapiens)
Assay: Determination of Edg-2 receptor inhibition by FLIPR measurements (LPA-mediated calcium liberation)
Conditions: CHO cells overexpressing human Edg-2 receptor, LPA 100 nM, fluo-4 calcium fluorescence; read-out: Inhibitory concentrations IC50 for inhibition of the Edg-2 receptor
pIC50: −log10 of the molar value.
Catalogue of compounds with associated pIC50

These recorded examples may help you get a feel for the data.
[[record]]
compound = "CC[C@H]1CC[C@](NC(=O)c2ccc(OC)c(OCCc3cccc(OC(F)(F)F)c3)c2)(C(=O)O)CC1"
reported_property = "pIC50"
value = "> 7.00"

[[record]]
compound = "COc1ncc(C(=O)NC2(C(=O)O)CCCCCC2)cc1-c1cc(F)c(F)c(F)c1"
reported_property = "pIC50"
value = "> 7.00"

[[record]]
compound = "COc1c(F)cc(C(=O)N[C@]2(C(=O)O)CC[C@@H](C)CC2)cc1OCCc1cccc(CCO)c1"
reported_property = "pIC50"
value = "> 7.00"

[[record]]
compound = "CC[C@H]1CC[C@](NC(=O)c2cc(F)c(OCCO)c(-c3ccc(OC)c(Cl)c3)c2)(C(=O)O)CC1"
reported_property = "pIC50"
value = "> 7.00"


Which pIC50 is listed for `COc1ncc(C(=O)N[C@]2(C(=O)O)CC[C@H](C)CC2)cc1-c1cccc(C(F)(F)F)c1` ?
> 7.00

Need pIC50 of `C[C@H]1CC[C@@](NC(=O)c2ccc(C(F)(F)F)c(-n3ccc4ccccc43)c2)(C(=O)O)CC1` , thanks.
6.00 to 7.00

Could you tell me which pIC50 is on file for CCC(COc1cc(C(=O)NC2(C(=O)O)CCCCCC2)ccc1OC)c1ccccc1 (stereo not shown) ?
6.00 to 7.00

----------
Molecular target: human Edg-2 receptor (Homo sapiens, UniProt Q92633)
Sequence (Q92633 whole entry): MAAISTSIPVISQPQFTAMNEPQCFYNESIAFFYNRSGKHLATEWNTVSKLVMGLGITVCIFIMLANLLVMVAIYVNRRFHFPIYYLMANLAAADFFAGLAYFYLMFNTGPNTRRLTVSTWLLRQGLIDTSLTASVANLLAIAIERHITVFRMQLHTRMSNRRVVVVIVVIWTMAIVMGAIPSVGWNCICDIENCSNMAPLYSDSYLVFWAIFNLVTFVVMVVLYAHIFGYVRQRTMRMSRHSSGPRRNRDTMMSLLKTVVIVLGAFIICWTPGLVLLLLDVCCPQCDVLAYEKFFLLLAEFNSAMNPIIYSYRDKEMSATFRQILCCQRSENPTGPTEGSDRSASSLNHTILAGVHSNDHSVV
Test: Determination of Edg-2 receptor inhibition by FLIPR measurements (LPA-mediated calcium liberation)
Details: CHO cells overexpressing human Edg-2 receptor, LPA 100 nM, fluo-4 calcium fluorescence; read-out: Inhibitory concentrations IC50 for inhibition of the Edg-2 receptor
Reported IC50 values are given for each entry in this list.

So what's the measured IC50 for this one? COc1ncc(C(=O)N[C@]2(C(=O)O)CC[C@@H](C)CC2)cc1OCCc1cc(OC(F)(F)F)ccc1F [Example 82]
< 100 nM

Look up IC50: CC(=O)c1ccc(C(=O)NC2(C(=O)O)CCCCCC2)cc1OCCc1cccc(C)c1 [Example 60]
100 to 1000 nM

Quick one: IC50 of COc1ccc(C(=O)NC2(C(=O)O)CCCCCC2)cc1OCCc1cc(Cl)ccc1Cl [Example 17] ?
< 100 nM

Fill in: IC50 of COc1ccc(C(=O)NC2(C(=O)O)CCCC(C)CC2)cc1OCCc1cccc(C)c1 (stereo not shown) [Example 26] is ___
< 100 nM

Could you tell me which IC50 is on file for CCC1CCC(NC(=O)c2ccc(OC)c(OCCc3cccc(C)c3)c2)(C(=O)O)CC1 (stereo not shown) [Example 50] ?
< 100 nM

Requested field: IC50. Item: COc1ccc(C(=O)NC2(C(=O)O)CCC(C(C)(C)C)CC2)cc1OCCc1cccc(C)c1 (stereo not shown) [Example 366]
100 to 1000 nM

----------
Recorded measurements of IC50, one per entry
Target: UniProt:Q92633
Experiment: Determination of Edg-2 receptor inhibition by FLIPR measurements (LPA-mediated calcium liberation)
Settings: CHO cells overexpressing human Edg-2 receptor, LPA 100 nM, fluo-4 calcium fluorescence; read-out: Inhibitory concentrations IC50 for inhibition of the Edg-2 receptor
From the text: A) Determination of Edg-2 Receptor Inhibition by Fluorescence Imaging Plate Reader (FLIPR) Measurements The inhibition of the Edg-2 receptor (LPA1 receptor) by the compounds of the invention was quantified by the inhibitory effect on the LPA-mediated calcium liberation in a cell-based calcium fluorescence assay by use of Chinese hamster ovarian (CHO) cells in which the human Edg-2 receptor was stably overexpressed (Flp-In system, Invitrogen). […]

A selection of reference data follows.
[[record]]
molecule = "COc1ncc(C(=O)N[C@]2(C(=O)O)CC[C@@H](C)CC2)cc1OCCc1cccc(C)c1"
experimental_target = "UniProt:Q92633"
value = "< 100 nM"

[[record]]
molecule = "COc1ccc(C(=O)NC2(C(=O)O)CCCCCC2)cc1OCCc1cccc(C2COC2)c1"
experimental_target = "UniProt:Q92633"
value = "100 to 1000 nM"

[[record]]
molecule = "COc1ccc(C(=O)NC2(C(=O)O)CCC(C(F)(F)F)CC2)cc1OCCc1cccc(C)c1 (centres unmarked) [Example 28]"
experimental_target = "UniProt:Q92633"
value = "< 100 nM"

[[record]]
molecule = "COc1ccc(C(=O)NC2(C(=O)O)CCCCCC2)cc1OCCc1cc(OC(F)(F)F)ccc1F"
experimental_target = "UniProt:Q92633"
value = "< 100 nM"


// map COc1ccc(C(=O)NC2(C(=O)O)CCC(C)C2)cc1OCCc1cccc(C)c1 (centres unmarked) [Example 373] to recorded IC50 (system: UniProt:Q92633)
100 to 1000 nM

Please tell me: IC50 of `COCCOc1ccc(C(=O)NC2(C(=O)O)CCCCCC2)cc1OCCc1cccc(Cl)c1` , system UniProt:Q92633?
1000 to 30000 nM

----------
Catalogue of pIC50 readings, one per entry.
Target: human Edg-2 receptor (Homo sapiens, UniProt Q92633)
Experiment: Determination of Edg-2 receptor inhibition by FLIPR measurements (LPA-mediated calcium liberation)
Conditions: CHO cells overexpressing human Edg-2 receptor, LPA 100 nM, fluo-4 calcium fluorescence; read-out: Inhibitory concentrations IC50 for inhibition of the Edg-2 receptor
pIC50: −log10 of the molar value.

[[record]]
molecule = "COc1ncc(C(=O)N[C@]2(C(=O)O)CC[C@@H](C)CC2)cc1-c1cccc(OC(F)(F)F)c1 [Example 308]"
value = "> 7.00"

[[record]]
molecule = "Cc1cccc(CCOc2cc(C(=O)NC3(C(=O)O)CCCCCC3)cc3c2OC(F)(F)O3)c1 [Example 455]"
value = "> 7.00"

[[record]]
molecule = "C[C@H]1CC[C@](NC(=O)c2ccc(OCCO)c(OCCc3ccccc3)c2)(C(=O)O)CC1 [Example 421]"
value = "6.00 to 7.00"

[[record]]
molecule = "CC[C@H]1CC[C@](NC(=O)c2cnc(OC)c(-c3ccc(F)c(F)c3)c2)(C(=O)O)CC1 [Example 359]"
value = "> 7.00"


Now turn to the next molecule.
Give recorded pIC50 with human Edg-2 receptor (Homo sapiens, UniProt Q92633) for the following molecule: COc1ccc(C(=O)NC2(C(=O)O)CCCCCC2)cc1-c1cccc(NS(=O)(=O)N(C)C)c1 [Example 103]
6.00 to 7.00

----------
Target: human Edg-2 receptor (Homo sapiens, UniProt Q92633)
Assay: Determination of Edg-2 receptor inhibition by FLIPR measurements (LPA-mediated calcium liberation)
Settings: CHO cells overexpressing human Edg-2 receptor, LPA 100 nM, fluo-4 calcium fluorescence; read-out: Inhibitory concentrations IC50 for inhibition of the Edg-2 receptor
Reported property: IC50

Below, 2 compounds whose answers are already recorded.
[[record]]
given_smiles = "CC[C@H]1CC[C@](NC(=O)c2cnc(OC)c(-c3cccc(F)c3)c2)(C(=O)O)CC1"
reported_property = "IC50"
value = "< 100 nM"

[[record]]
given_smiles = "C=C1CCC(NC(=O)c2ccc(OC)c(OCCc3cccc(C)c3)c2)(C(=O)O)CC1"
reported_property = "IC50"
value = "< 100 nM"


Now examine the next entry.
Entry `CC[C@H]1CC[C@](NC(=O)c2ccc(OC)c(-c3ccc(OC)c(F)c3)c2)(C(=O)O)CC1` has what IC50?
100 to 1000 nM

----------
Target: human Edg-2 receptor (Homo sapiens)
Assay: Determination of Edg-2 receptor inhibition by FLIPR measurements (LPA-mediated calcium liberation)
Details: CHO cells overexpressing human Edg-2 receptor, LPA 100 nM, fluo-4 calcium fluorescence; read-out: Inhibitory concentrations IC50 for inhibition of the Edg-2 receptor
Quick reference for IC50 among some compounds

Solved entries (count: 5):
[[record]]
compound = "CC[C@H]1CC[C@@](NC(=O)c2cnc(OC)c(OCCc3cccc(Cl)c3)c2)(C(=O)O)CC1 [Example 397]"
value = "< 100 nM"

[[record]]
compound = "COc1ccc(-c2cc(C(=O)N[C@]3(C(=O)O)CC[C@H](C(F)(F)F)CC3)cc(F)c2OC)cc1Cl [Example 448]"
value = "< 100 nM"

[[record]]
compound = "C[C@H]1CC[C@](NC(=O)c2ccc(OCCO)c(OCCc3cccc(Cl)c3)c2)(C(=O)O)CC1 [Example 119]"
value = "< 100 nM"

[[record]]
compound = "COc1ncc(C(=O)NC2(C(=O)O)CCCCCC2)cc1-c1cccc(NS(=O)(=O)N(C)C)c1 [Example 93]"
value = "1000 to 30000 nM"

[[record]]
compound = "COc1ccc(C(=O)NC2(C(=O)O)CC(C)C2)cc1OCCc1cccc(C)c1 (centres unmarked) [Example 76]"
value = "< 100 nM"


Request the reported IC50 associated with COc1ccc(C(=O)NC2(C(=O)O)CCCC2C)cc1OCCc1cccc(C)c1 (centres unmarked) [Example 49]
1000 to 30000 nM

Which IC50 is listed for COc1ncc(C(=O)N[C@]2(C(=O)O)CC[C@H](C)CC2)cc1-c1cc(F)cc(F)c1 [Example 410] ?
< 100 nM

Sample COc1ccc(C(=O)NC2(C(=O)O)CCCCCC2)cc1OCCc1cccc(C(F)(F)F)c1 [Example 363] — what was its IC50?
100 to 1000 nM

Could you tell me which IC50 is on file for CC[C@H]1CC[C@@](NC(=O)c2ccc(OCCO)c(OCCc3cccc(Cl)c3)c2)(C(=O)O)CC1 [Example 418] ?
< 100 nM

Need IC50 of COc1ccc(-c2cncc(C(=O)N[C@]3(C(=O)O)CC[C@H](C(F)(F)F)CC3)c2)cc1Cl [Example 451] , thanks.
< 100 nM
